Taken from patent US20120083522A1.

I'd appreciate it if you could supply Inhibition of Factor XI protein relative to the PBS control values for the items below.
- Tested on: Factor XI protein
- TEST: Cynomolgus monkeys: plasma Factor XI protein ELISA (Example 30)
- Format: in vivo
- STUDY_CONDITIONS: 25 mg/kg s.c.; plasma ELISA; Day 38
- Protocol: Groups, each consisting of two male and two female monkeys, were injected subcutaneously with 25 mg/kg of ISIS 416850, ISIS 449709, ISIS 445522, ISIS 449710, ISIS 449707, ISIS 449711, ISIS 449708, 416858 and ISIS 445531. […] Body weights were taken 14 days and 7 days before the start of treatment and were then measured weekly throughout the treatment period. […] The results are presented in Table 148, expressed as percentage reduction relative to that of the PBS control.
In the oligonucleotide strings, read from the 5' end, every base follows the letter of its sugar. An asterisk marks phosphorothioate; unmarked linkages are phosphodiester. Other units and linkages are bracketed, terminal groups are in braces. A string of capitals states the bases alone. e = 2'-O-(2-methoxyethyl) (MOE); [5mC] = 5-methylcytosine; d = 2'-deoxy (DNA)
Answers are plain numbers, in %.

// batch mode: one Inhibition of Factor XI protein relative to the PBS control value per listed entry
1. 449710 (antisense e[5mC]*eA*e[5mC]*dA*dG*dT*dT*dT*d[5mC]*dT*dG*dG*d[5mC]*eA*eG*eG) [compound 449710]
2. 416858 (antisense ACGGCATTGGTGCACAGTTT; 5-10-5 gapmer, wing sugar chemistry not given here, further chemistry not given here) [compound 416858]

Out:
1. 20
2. 74

In: Param item = 449707 (antisense e[5mC]*eA*e[5mC]*eA*dG*dT*dT*dT*d[5mC]*dT*dG*dG*e[5mC]*eA*eG*eG) [compound 449707] ; retrieve measured Inhibition of Factor XI protein relative to the PBS control.
Out: 28

* * *

Provide the recorded Liver weight for the entries that follow.
- TEST: Cynomolgus monkeys: body and organ weights (Example 29)
- Format: in vivo
- STUDY_CONDITIONS: after euthanasia
In the oligonucleotide strings, read from the 5' end, every base follows the letter of its sugar. An asterisk marks phosphorothioate; unmarked linkages are phosphodiester. Other units and linkages are bracketed, terminal groups are in braces. A string of capitals states the bases alone. e = 2'-O-(2-methoxyethyl) (MOE); [5mC] = 5-methylcytosine; d = 2'-deoxy (DNA)

As a guide, the following entries are already answered.
ISIS 416864: gapmer of Table 8 (antisense eG*eG*e[5mC]*eA*eG*d[5mC]*dG*dG*dA*d[5mC]*dG*dG*d[5mC]*dA*dT*eT*eG*eG*eT*eG): 53 g
ISIS 416838: gapmer of Table 6 (antisense eG*e[5mC]*eA*eA*e[5mC]*d[5mC]*dG*dG*dG*dA*dT*dG*dA*dT*dG*eA*eG*eT*eG*e[5mC]): 63 g

// each substance listed below needs its Liver weight
1. ISIS 417002: gapmer of Table 8 (antisense eG*eG*dT*dG*d[5mC]*dA*d[5mC]*dA*dG*dT*dT*dT*d[5mC]*dT*dG*eG*e[5mC]*eA*eG*eG)
2. ISIS 416858: gapmer of Table 8 (antisense eA*e[5mC]*eG*eG*e[5mC]*dA*dT*dT*dG*dG*dT*dG*d[5mC]*dA*d[5mC]*eA*eG*eT*eT*eT)

Out:
["51 g", "60 g"]

* * *

Hi there, I'd appreciate the recorded % inhibition of Factor XI mRNA in liver relative to the PBS control for every entry that follows.
- System: Factor XI mRNA
- TEST: Cynomolgus monkeys, escalating doses: liver Factor XI RNA analysis (Example 29)
- Format: in vivo
- STUDY_CONDITIONS: escalating doses 5, 10, 25 mg/kg s.c. over 12 weeks, day 85
Answers are plain numbers, in %.

Known % inhibition of Factor XI mRNA in liver relative to the PBS control results, listed for orientation:
417002 (antisense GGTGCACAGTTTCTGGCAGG; 2-13-5 gapmer, wing sugar chemistry not given here, further chemistry not given here) [compound 417002]: 57
416838 (antisense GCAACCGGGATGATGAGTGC; 5-10-5 gapmer, wing sugar chemistry not given here, further chemistry not given here) [compound 416838]: 37
416850 (antisense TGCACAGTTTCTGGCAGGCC; 5-10-5 gapmer, wing sugar chemistry not given here, further chemistry not given here) [compound 416850]: 84
416864 (antisense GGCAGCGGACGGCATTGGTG; 5-10-5 gapmer, wing sugar chemistry not given here, further chemistry not given here) [compound 416864]: 44

In: Requested field: % inhibition of Factor XI mRNA in liver relative to the PBS control. Item: 416858 (antisense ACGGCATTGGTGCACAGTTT; 5-10-5 gapmer, wing sugar chemistry not given here, further chemistry not given here) [compound 416858]
Out: 90

* * *

- Tested on: human Factor XI mRNA
- TEST: Dose-dependent inhibition and IC50 in HepG2 cells, electroporation (Example 15)
- Format: cell-based
- STUDY_CONDITIONS: electroporation, 1,111.11 nM
In the oligonucleotide strings, read from the 5' end, every base follows the letter of its sugar. An asterisk marks phosphorothioate; unmarked linkages are phosphodiester. Other units and linkages are bracketed, terminal groups are in braces. A string of capitals states the bases alone. e = 2'-O-(2-methoxyethyl) (MOE); [5mC] = 5-methylcytosine; d = 2'-deoxy (DNA)
So I've got a bunch of substances here, and I need their percent inhibition of Factor XI mRNA values.
Answers are plain numbers, in %.

416856 (antisense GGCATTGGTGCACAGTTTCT; 5-10-5 gapmer, wing sugar chemistry not given here, further chemistry not given here) [compound 416856]: 35
445498 (antisense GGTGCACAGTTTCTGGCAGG; 6-8-6 gapmer chemistry, chemistry not fully specified) [compound 445498]: 27
416857 (antisense e[5mC]*eG*eG*e[5mC]*eA*dT*dT*dG*dG*dT*dG*d[5mC]*dA*d[5mC]*dA*eG*eT*eT*eT*e[5mC]) [compound 416857]: 35
416849 (antisense eG*e[5mC]*eA*e[5mC]*eA*dG*dT*dT*dT*d[5mC]*dT*dG*dG*d[5mC]*dA*eG*eG*e[5mC]*e[5mC]*eT) [compound 416849]: 26
445505 (antisense e[5mC]*eG*eG*e[5mC]*eA*eT*dT*dG*dG*dT*dG*d[5mC]*dA*d[5mC]*eA*eG*eT*eT*eT*e[5mC]) [compound 445505]: 39

For every listed record, write down its percent inhibition of Factor XI mRNA.
1. 445522 (antisense eG*e[5mC]*eA*e[5mC]*eA*dG*dT*dT*dT*d[5mC]*dT*dG*dG*e[5mC]*eA*eG*eG*e[5mC]) [compound 445522]
2. 416850 (antisense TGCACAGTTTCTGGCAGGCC; 5-10-5 gapmer, wing sugar chemistry not given here, further chemistry not given here) [compound 416850]
3. 416858 (antisense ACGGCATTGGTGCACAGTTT; 5-10-5 gapmer, wing sugar chemistry not given here, further chemistry not given here) [compound 416858]
4. 445504 (antisense eG*eG*e[5mC]*eA*eT*eT*dG*dG*dT*dG*d[5mC]*dA*d[5mC]*dA*eG*eT*eT*eT*e[5mC]*eT) [compound 445504]
5. 416860 (antisense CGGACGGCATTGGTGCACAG; 5-10-5 gapmer, wing sugar chemistry not given here, further chemistry not given here) [compound 416860]
6. 416861 (antisense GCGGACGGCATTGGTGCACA; 5-10-5 gapmer, wing sugar chemistry not given here, further chemistry not given here) [compound 416861]

Out:
[44, 36, 36, 38, 39, 27]

In: # input substance: 445531 (antisense eG*eG*e[5mC]*eA*eT*dT*dG*dG*dT*dG*d[5mC]*dA*d[5mC]*eA*eG*eT*eT*eT) [compound 445531] ; wanted: its percent inhibition of Factor XI mRNA
Out: 52

* * *

I'd appreciate it if you could supply percent inhibition of Factor XI mRNA, relative to untreated control cells values for the items below.
- Test system: human Factor XI mRNA
- TEST: Dose-dependent inhibition in HepG2 cells, lipofectin (Example 4)
- Type: cell-based
- STUDY_CONDITIONS: 9.375 nM, 16 hours
In the oligonucleotide strings, read from the 5' end, every base follows the letter of its sugar. An asterisk marks phosphorothioate; unmarked linkages are phosphodiester. Other units and linkages are bracketed, terminal groups are in braces. A string of capitals states the bases alone. e = 2'-O-(2-methoxyethyl) (MOE); [5mC] = 5-methylcytosine; d = 2'-deoxy (DNA)
Answers are plain numbers, in %.

For each of the substances below, state percent inhibition of Factor XI mRNA, relative to untreated control cells.
1. 416993 (antisense e[5mC]*eT*dT*dT*dG*dA*dG*dA*dT*dT*d[5mC]*dT*dT*dT*dG*eG*eG*e[5mC]*e[5mC]*eA) [compound 416993]
2. 416926 (antisense eT*eG*eG*dT*dG*d[5mC]*dA*d[5mC]*dA*dG*dT*dT*dT*d[5mC]*dT*dG*dG*e[5mC]*eA*eG) [compound 416926]
3. 416864 (antisense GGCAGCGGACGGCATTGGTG; 5-10-5 gapmer, wing sugar chemistry not given here, further chemistry not given here) [compound 416864]

Out:
1. 15
2. 31
3. 18

For each listed entry, give its percent inhibition of Factor XI mRNA, relative to untreated control cells.
1. 416999 (antisense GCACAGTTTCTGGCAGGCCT; 2-13-5 gapmer, wing sugar chemistry not given here, further chemistry not given here) [compound 416999]
2. 412206 (antisense e[5mC]*e[5mC]*eG*eT*eG*d[5mC]*dA*dT*d[5mC]*dT*dT*dT*d[5mC]*dT*dT*eG*eG*e[5mC]*eA*eT) [compound 412206]

Out:
24
24
